measurement_protocol: Phase I pharmacokinetics after single IV bolus
Format: in vivo
run_parameters: both sexes, human, plasma, iv, 0.04 mg/kg, single IV bolus 0.04 mg/kg (n = 6), read-out: Cmax, Mean
Protocol: (Abstract available in the final supplement of the Journal of Anesthesia and Analgesia, May 2020 (Volume 30, Issue pages 73-74), which is incorporated herein by reference. Healthy volunteers (n=34) aged 18 to 55 of either gender gave informed consent to an 1RB-approved Phase I protocol, NMB was measured by mechanomyography during sevoflurane (0.5 MAC)/N20 (70%) anesthesia. Each volunteer received a single IV bolus of RP1000,
recorded_metric: Cmax (ng/mL)
Could you give me the number in ng/mL? Just the number is fine.

Entry under review: COc1ccc(C[C@@H]2c3cc(OC)c(OC)cc3CC[N@@+]2(C)CCCOC(=O)/C=C/C(=O)OCCC[N@+]2(C)CCc3cc(OC)c(OC)cc3[C@H]2Cc2ccc(OC)c(OC)c2)cc1OC.[Cl-].[Cl-] . Reported Cmax?
2540

* * *

measurement_protocol: Phase I pharmacokinetics after single IV bolus
Assay type: in vivo
run_parameters: both sexes, human, plasma, iv, 0.06 mg/kg, single IV bolus 0.06 mg/kg (n = 6), read-out: AUClast, Geometric Mean (converted)
recorded_metric: AUC(0-t) (ng·h/mL)
Could you give me the number in ng·h/mL? Just the number is fine.

Entry under review: COc1ccc(C[C@@H]2c3cc(OC)c(OC)cc3CC[N@@+]2(C)CCCOC(=O)/C=C/C(=O)OCCC[N@+]2(C)CCc3cc(OC)c(OC)cc3[C@H]2Cc2ccc(OC)c(OC)c2)cc1OC.[Cl-].[Cl-] [RP1000] . Reported AUC(0-t)?
160

* * *

measurement_protocol: Phase I pharmacokinetics after single IV bolus
Assay type: in vivo
run_parameters: both sexes, human, in vivo, intravenous, all dosage groups, read-out: half-life of elimination
recorded_metric: half-life

Entry under review: COc1ccc(C[C@@H]2c3cc(OC)c(OC)cc3CC[N@@+]2(C)CCCOC(=O)/C=C/C(=O)OCCC[N@+]2(C)CCc3cc(OC)c(OC)cc3[C@H]2Cc2ccc(OC)c(OC)c2)cc1OC.[Cl-].[Cl-] . Reported half-life?
25 to 26 min

* * *

measurement_protocol: Phase I pharmacokinetics after single IV bolus
Format: in vivo
run_parameters: both sexes, human, plasma, iv, 0.08 mg/kg, single IV bolus 0.08 mg/kg (n = 6), read-out: Cmax, Geometric Mean
recorded_metric: Cmax
Include the unit after the number when you answer.

Entry under review: COc1ccc(C[C@@H]2c3cc(OC)c(OC)cc3CC[N@@+]2(C)CCCOC(=O)/C=C/C(=O)OCCC[N@+]2(C)CCc3cc(OC)c(OC)cc3[C@H]2Cc2ccc(OC)c(OC)c2)cc1OC.[Cl-].[Cl-] . Reported Cmax?
3610 ng/mL

* * *

measurement_protocol: Phase I pharmacokinetics after single IV bolus
Assay type: in vivo
run_parameters: both sexes, human, plasma, iv, 0.08 mg/kg, single IV bolus 0.08 mg/kg (n = 6), read-out: CL (clearance), Mean (SD)
Protocol: (Abstract available in the final supplement of the Journal of Anesthesia and Analgesia, May 2020 (Volume 30, Issue pages 73-74), which is incorporated herein by reference. Healthy volunteers (n=34) aged 18 to 55 of either gender gave informed consent to an 1RB-approved Phase I protocol, NMB was measured by mechanomyography during sevoflurane (0.5 MAC)/N20 (70%) anesthesia. Each volunteer received a single IV bolus of RP1000,
recorded_metric: clearance (mL/min)
Could you give me the number in mL/min? Just the number is fine.

Entry under review: COc1ccc(C[C@@H]2c3cc(OC)c(OC)cc3CC[N@@+]2(C)CCCOC(=O)/C=C/C(=O)OCCC[N@+]2(C)CCc3cc(OC)c(OC)cc3[C@H]2Cc2ccc(OC)c(OC)c2)cc1OC.[Cl-].[Cl-] [RP1000] . Reported clearance?
390

* * *

measurement_protocol: Phase I pharmacokinetics after single IV bolus
Type: in vivo
run_parameters: both sexes, human, plasma, iv, 0.1 mg/kg, single IV bolus 0.10 mg/kg (n = 6), read-out: AUClast, Mean (converted)
recorded_metric: AUC(0-t)

Entry under review: COc1ccc(C[C@@H]2c3cc(OC)c(OC)cc3CC[N@@+]2(C)CCCOC(=O)/C=C/C(=O)OCCC[N@+]2(C)CCc3cc(OC)c(OC)cc3[C@H]2Cc2ccc(OC)c(OC)c2)cc1OC.[Cl-].[Cl-] . Reported AUC(0-t)?
291 ng·h/mL

* * *

measurement_protocol: Phase I pharmacokinetics after single IV bolus
Format: in vivo
run_parameters: both sexes, human, plasma, iv, 0.06 mg/kg, single IV bolus 0.06 mg/kg (n = 6), read-out: CL (clearance), Geometric Mean
recorded_metric: clearance (mL/min)
Could you give me the number in mL/min? Just the number is fine.

Entry under review: COc1ccc(C[C@@H]2c3cc(OC)c(OC)cc3CC[N@@+]2(C)CCCOC(=O)/C=C/C(=O)OCCC[N@+]2(C)CCc3cc(OC)c(OC)cc3[C@H]2Cc2ccc(OC)c(OC)c2)cc1OC.[Cl-].[Cl-] . Reported clearance?
399

* * *

measurement_protocol: Phase I pharmacokinetics after single IV bolus
Assay type: in vivo
run_parameters: both sexes, human, plasma, iv, 0.06 mg/kg, single IV bolus 0.06 mg/kg (n = 6), read-out: Vss (volume at steady state), Mean
recorded_metric: Vd (L)
Could you give me the number in L? Just the number is fine.

Entry under review: COc1ccc(C[C@@H]2c3cc(OC)c(OC)cc3CC[N@@+]2(C)CCCOC(=O)/C=C/C(=O)OCCC[N@+]2(C)CCc3cc(OC)c(OC)cc3[C@H]2Cc2ccc(OC)c(OC)c2)cc1OC.[Cl-].[Cl-] . Reported Vd?
8.92

* * *

measurement_protocol: Phase I pharmacokinetics after single IV bolus
Type: in vivo
run_parameters: both sexes, human, plasma, iv, 0.08 mg/kg, single IV bolus 0.08 mg/kg (n = 6), read-out: CL (clearance), Geometric Mean
recorded_metric: clearance (mL/min)
Could you give me the number in mL/min? Just the number is fine.

Entry under review: COc1ccc(C[C@@H]2c3cc(OC)c(OC)cc3CC[N@@+]2(C)CCCOC(=O)/C=C/C(=O)OCCC[N@+]2(C)CCc3cc(OC)c(OC)cc3[C@H]2Cc2ccc(OC)c(OC)c2)cc1OC.[Cl-].[Cl-] . Reported clearance?
387

* * *

measurement_protocol: Phase I pharmacokinetics after single IV bolus
Format: in vivo
run_parameters: both sexes, human, plasma, iv, 0.14 mg/kg, single IV bolus 0.14 mg/kg (n = 4), read-out: t1/2 (terminal elimination half-life), Geometric Mean
recorded_metric: half-life (min)
Could you give me the number in min? Just the number is fine.

Entry under review: COc1ccc(C[C@@H]2c3cc(OC)c(OC)cc3CC[N@@+]2(C)CCCOC(=O)/C=C/C(=O)OCCC[N@+]2(C)CCc3cc(OC)c(OC)cc3[C@H]2Cc2ccc(OC)c(OC)c2)cc1OC.[Cl-].[Cl-] . Reported half-life?
24.8

* * *

measurement_protocol: Phase I pharmacokinetics after single IV bolus
Assay type: in vivo
run_parameters: both sexes, human, plasma, iv, 0.06 mg/kg, single IV bolus 0.06 mg/kg (n = 6), read-out: t1/2 (terminal elimination half-life), Geometric Mean
Method: (Abstract available in the final supplement of the Journal of Anesthesia and Analgesia, May 2020 (Volume 30, Issue pages 73-74), which is incorporated herein by reference. Healthy volunteers (n=34) aged 18 to 55 of either gender gave informed consent to an 1RB-approved Phase I protocol, NMB was measured by mechanomyography during sevoflurane (0.5 MAC)/N20 (70%) anesthesia. Each volunteer received a single IV bolus of RP1000,
recorded_metric: half-life (min)
Could you give me the number in min? Just the number is fine.

Entry under review: COc1ccc(C[C@@H]2c3cc(OC)c(OC)cc3CC[N@@+]2(C)CCCOC(=O)/C=C/C(=O)OCCC[N@+]2(C)CCc3cc(OC)c(OC)cc3[C@H]2Cc2ccc(OC)c(OC)c2)cc1OC.[Cl-].[Cl-] . Reported half-life?
26.3

* * *

measurement_protocol: Phase I pharmacokinetics after single IV bolus
Type: in vivo
run_parameters: both sexes, human, plasma, iv, 0.1 mg/kg, single IV bolus 0.10 mg/kg (n = 6), read-out: CL (clearance), Mean (SD)
recorded_metric: clearance (mL/min)
Could you give me the number in mL/min? Just the number is fine.

Entry under review: COc1ccc(C[C@@H]2c3cc(OC)c(OC)cc3CC[N@@+]2(C)CCCOC(=O)/C=C/C(=O)OCCC[N@+]2(C)CCc3cc(OC)c(OC)cc3[C@H]2Cc2ccc(OC)c(OC)c2)cc1OC.[Cl-].[Cl-] . Reported clearance?
443

* * *

measurement_protocol: Phase I pharmacokinetics after single IV bolus
Assay type: in vivo
run_parameters: both sexes, human, plasma, iv, 0.08 mg/kg, single IV bolus 0.08 mg/kg (n = 6), read-out: Cmax, Mean
recorded_metric: Cmax (ng/mL)
Could you give me the number in ng/mL? Just the number is fine.

Entry under review: COc1ccc(C[C@@H]2c3cc(OC)c(OC)cc3CC[N@@+]2(C)CCCOC(=O)/C=C/C(=O)OCCC[N@+]2(C)CCc3cc(OC)c(OC)cc3[C@H]2Cc2ccc(OC)c(OC)c2)cc1OC.[Cl-].[Cl-] [RP1000] . Reported Cmax?
4040
